# test target: T1, human DLL3 (ACRO, DLL3-H52H4) (human, UniProt Q9NYJ7 27-492)
# T1 construct: Bought
# T1 sequence: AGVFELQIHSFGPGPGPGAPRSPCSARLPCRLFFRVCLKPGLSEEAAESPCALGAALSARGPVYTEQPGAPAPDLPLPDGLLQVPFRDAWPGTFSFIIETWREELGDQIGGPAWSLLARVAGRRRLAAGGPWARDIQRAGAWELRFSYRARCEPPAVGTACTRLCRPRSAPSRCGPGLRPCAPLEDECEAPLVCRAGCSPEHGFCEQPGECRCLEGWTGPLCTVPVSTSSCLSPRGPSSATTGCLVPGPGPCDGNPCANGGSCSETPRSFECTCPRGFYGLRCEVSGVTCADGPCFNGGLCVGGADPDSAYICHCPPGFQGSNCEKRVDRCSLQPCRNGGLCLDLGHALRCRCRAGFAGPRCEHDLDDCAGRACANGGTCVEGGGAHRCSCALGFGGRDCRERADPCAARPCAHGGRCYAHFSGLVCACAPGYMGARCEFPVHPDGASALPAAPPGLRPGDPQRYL
# test name: SPR Biacore 8K, Ab captured on Protein A
endpoint name: koff
Give the value; after it, write the unit.

INSERT INTO assay_data (binder, endpoint_name, result) VALUES
  ('hu110L2H3 (antibody, human IgG1, kappa, V domains shown) VH: EVQLVQSGAEVKKPGASVKVSCKTSGYTFTDYYMNWVRQAPGQSLEWMGIINPYQGGTSYTQKFKGRVTITVDKSASTAYMELSSLRSEDTAVYYCARHFYDSSYLTYSTMDYWGQGTTVTVSS VL: NIVMTQSPKSLAVSLGERATINCKASENVGIFVSWYQQKPGQSPKLLIYGASNRYTGVPDRFSGSGSATDFTLTISSLQAEDVADYYCGQSHSYPLTFGQGTKLEIKR', 'koff', '6.45e-05 s⁻¹');

Now for another entry.
The reported koff of the binder hu110L1H5 (antibody, human IgG1, kappa, V domains shown) VH: EVQLVQSGAEVKKPGASVKVSCKTSGYTFTDYYMNWVRQAPGQSLEWMGIINPYTGGTSYTQKFKGRVTITVDKSASTAYMELSSLRSEDTAVYYCARHFYDSSYLTYSTMDYWGQGTTVTVSS VL: DIVMTQSPDSLAVSLGERATINCKASENVGIFVSWYQQKPGQSPKLLIYGASNRYTGVPDRFSGSGSATDFTLTISSLQAEDVAVYYCGQSHSYPLTFGQGTKLEIKR was 6.41e-05 s⁻¹
